- system tested: T1, SBDSco E156R/D157R (Streptomyces coelicolor, UniProt Q9L0M9 90-250, E156R;D157R)
- T1 sequence: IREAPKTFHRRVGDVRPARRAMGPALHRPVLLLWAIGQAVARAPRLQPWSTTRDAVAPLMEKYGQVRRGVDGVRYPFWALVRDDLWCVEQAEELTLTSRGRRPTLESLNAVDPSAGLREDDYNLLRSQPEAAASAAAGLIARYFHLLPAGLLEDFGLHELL
- protocol details: fluorescence polarization; FP: 20 mM Tris-HCl pH 8.0, 50 mM NaCl, 5% glycerol, 1 mM DTT, 5 nM probe, room temperature; EMSA: 20 mM Tris-HCl pH 8.0, 100 mM NaCl, 5% glycerol, room temperature, protein 4x DNA
- test conditions: protein: recombinant; tags: 6xHis; label: 5'-FAM on one strand (FP); blunt
pKd: −log10 of the molar value.
reported property: pKd

- binder: "PT-GATC-10 RP (hemi-PT) (dsDNA, RP phosphorothioate between G4 and A5 of strand 1) DNA 1: GATGATCCTA DNA 2: TAGGATCATC"
  observed: 6.72
- binder: "PT-GAAC-10 RP (hemi-PT) (dsDNA, RP phosphorothioate between G4 and A5 of strand 1) DNA 1: GGCGAACGTG DNA 2: CACGTTCGCC"
  observed: 6.74
